System: S180 ascites
Assay: Anti-tumor evaluation: % increase in life span (% ILS) and survivors, S180 ascites in female CFW Swiss mice
Format: in vivo
Settings: dose 10 mg/kg; on day of evaluation
Listed next: entries and their corresponding Survivors.

COMPOUND | Survivors
[I][Pd]1([I])[NH]C2CCCCC2[NH]1 (stereo not drawn) [Comp. Ex. M] | 0 of 4
N#C[S-].N#C[S-].NCC(=O)CN.[Pd+2] [Comp. Ex. E] | 0 of 4
N#C[S][Pd]1([S]C#N)[NH]CC(O)C[NH]1 [Comp. Ex. C] | 0 of 6
C[NH+]1CC[NH+](C)[Pd-2]1([S]C#N)[S]C#N (stereo not drawn) [Ex. 4] | 0 of 6
Nc1ccccc1N.O=N[O-].O=N[O-].[Pd+2] [Comp. Ex. I, dinitro(o-phenylenediamine)palladium(II)] | 0 of 4
NCCN.[I-].[I-].[Pd+2] [Comp. Ex. L, Diiodo(ethylenediamine)palladium(II)] | 0 of 4
N#C[S-].N#C[S-].NCCN.[Pd+2] [Ex. 1] | 0 of 4
CC1C[NH][Pd]([S]C#N)([S]C#N)[NH]1 (stereo not drawn) [Ex. 2] | 0 of 6
NC1CCCCC1N.O=[N+]([O-])[Pd][N+](=O)[O-] (stereo not drawn) [Comp. Ex. H] | 0 of 4

The reported numbers originate from patent US4783482A.
